Quick reference for pKi among some compounds
TARGET SYSTEM: human NEP (Homo sapiens (Human))
Sequence (P08473 52-750): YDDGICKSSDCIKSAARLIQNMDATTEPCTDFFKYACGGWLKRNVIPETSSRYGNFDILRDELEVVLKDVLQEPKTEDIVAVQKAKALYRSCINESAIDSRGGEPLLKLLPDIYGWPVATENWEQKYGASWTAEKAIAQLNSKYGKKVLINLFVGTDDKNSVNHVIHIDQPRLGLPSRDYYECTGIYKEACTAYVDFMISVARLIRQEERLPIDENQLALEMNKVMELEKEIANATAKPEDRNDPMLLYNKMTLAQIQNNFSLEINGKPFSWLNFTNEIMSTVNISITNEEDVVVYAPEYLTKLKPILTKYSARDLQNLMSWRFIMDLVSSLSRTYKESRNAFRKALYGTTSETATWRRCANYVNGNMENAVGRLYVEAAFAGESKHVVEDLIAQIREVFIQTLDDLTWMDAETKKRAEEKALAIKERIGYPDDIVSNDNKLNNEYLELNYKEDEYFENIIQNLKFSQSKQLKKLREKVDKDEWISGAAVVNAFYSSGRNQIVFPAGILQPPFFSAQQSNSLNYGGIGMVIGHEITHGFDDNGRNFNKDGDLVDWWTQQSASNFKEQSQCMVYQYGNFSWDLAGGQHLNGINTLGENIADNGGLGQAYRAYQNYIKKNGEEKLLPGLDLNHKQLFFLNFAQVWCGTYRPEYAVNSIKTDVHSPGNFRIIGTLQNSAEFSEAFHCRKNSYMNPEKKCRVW
METHOD SUMMARY: In vitro enzyme inhibition assay at human NEP
PARTICULARS: pKi, recombinant human NEP, fluorogenic peptide substrate, 37° C.
pKi: −log10 of the molar value.

{"columns": ["COMPOUND", "pKi"],
 "data": [
  ["Cc1cnc(C(=O)N[C@H](Cc2ccc(-c3cc(Cl)ccc3F)cc2Cl)C[C@H](N)C(=O)O)o1 [Example 18-4]", "8.00 to 8.50"],
  ["COC[C@H](C[C@@H](Cc1ccc(-c2cc(Cl)ccc2F)cc1)NC(=O)c1c[nH]c(=O)o1)C(=O)O [Example 2-10]", "8.50 to 8.90"],
  ["NC[C@H](C[C@@H](Cc1ccc(-c2cc(Cl)ccc2F)cc1)NC(=O)c1cnsc1)C(=O)O [Example 21-7]", "8.50 to 8.90"],
  ["O=C(N[C@H](Cc1ccc(-c2cc(Cl)ccc2F)cc1)C[C@@H](CN1CC(F)C1)C(=O)O)c1cnn[nH]1 [Example 91b]", "≥ 9.00"],
  ["CC(C)c1coc(C(=O)N[C@H](Cc2ccc(-c3cc(Cl)ccc3F)cc2)C[C@@H](NC(=O)[C@H](C)N)C(=O)O)n1 [Example 36-1]", "8.50 to 8.90"],
  ["CC1(O)CN(C[C@@H](C[C@@H](Cc2ccc(-c3cc(Cl)ccc3F)cc2)NC(=O)c2c[nH]nn2)C(=O)O)C1 [Example 101c]", "8.50 to 8.90"],
  ["NCC(=O)N[C@H](C[C@@H](Cc1ccc(-c2ccccc2F)cc1)NC(=O)c1c[nH]nn1)C(=O)O [Example 32]", "8.00 to 8.50"]
]}
